Tested on: Oval-Citar-3-MSLN cells
Assay details: Cytotoxic activity (CCK-8) in Oval-Citar-3 cells with high expression of MSLN
Measurement setup: OVal-CitAR3-MSLN, 72 hours, CCK-8, N = 3
Starred links: 1 amine or outer side, 2 acyl side, 3 side chain; linkers in the order of their positions; H or OH if unused. Non-standard residues stand in square brackets, D forms with d. Residues, ends and D or L forms follow the SMILES beside them. *: point of attachment. Dolaproine = CO[C@@H]([C@@H]1CCCN1)[C@@H](C)C(=O)O; Hexanoyl(6-maleimido) = O=C1C=CC(=O)N1CCCCCC(=O)*; Dil = CC[C@H](C)[C@H](NC)[C@@H](CC(=O)O)OC; PABC = O=C(OCc1ccc(N[*:1])cc1)[*:2]; Doe = c1ccc(C[C@H](N*)c2nccs2)cc1; X1 = C[C@@H](N*)[C@@H](O)c1ccccc1; Cit = NC(=O)NCCC[C@H](N)C(=O)O; NMeV = CN[C@H](C(=O)O)C(C)C
Metric name: Inhibition rate, % (maximum inhibition rate) (%)
Field format: number, assumed %, no unit text.

Documented Inhibition rate, % (maximum inhibition rate) of CC[C@H](C)[C@@H]([C@@H](CC(=O)N1CCC[C@H]1[C@H](OC)[C@@H](C)C(=O)N[C@@H](Cc1ccccc1)c1nccs1)OC)N(C)C(=O)[C@@H](NC(=O)[C@@H](NC)C(C)C)C(C)C [MMAD, monomethyl auristatin D] (H-[NMeV]V[Dil][Dolaproine]-Doe) : 98.1

Documented Inhibition rate, % (maximum inhibition rate) of CC(=O)O[C@H]1C(=O)[C@@]2(C)[C@H]([C@H](OC(=O)c3ccccc3)[C@]3(O)C[C@H](OC(=O)[C@H](O)[C@@H](NC(=O)c4ccccc4)c4ccccc4)C(C)=C1C3(C)C)[C@]1(OC(C)=O)CO[C@@H]1C[C@@H]2O [PTX, Paclitaxel] : 92.8

Documented Inhibition rate, % (maximum inhibition rate) of CC[C@H](C)[C@@H]([C@@H](CC(=O)N1CCC[C@H]1[C@H](OC)[C@@H](C)C(=O)N[C@H](C)[C@@H](O)c1ccccc1)OC)N(C)C(=O)[C@@H](NC(=O)[C@@H](NC)C(C)C)C(C)C [MMAE, monomethyl auristatin E] (H-[NMeV]V[Dil][Dolaproine]-X1) : 96.9

Documented Inhibition rate, % (maximum inhibition rate) of CC[C@H](C)[C@@H]([C@@H](CC(=O)N1CCC[C@H]1[C@H](OC)[C@@H](C)C(=O)N[C@H](C)[C@@H](O)c1ccccc1)OC)N(C)C(=O)[C@@H](NC(=O)[C@H](C(C)C)N(C)C(=O)OCc1ccc(NC(=O)[C@H](CCCNC(N)=O)NC(=O)[C@@H](NC(=O)CCCCCN2C(=O)C=CC2=O)C(C)C)cc1)C(C)C [Mc-Val-Cit-PAB-MMAE] ({Hexanoyl(6-maleimido)}-V[Cit][PABC][NMeV]V[Dil][Dolaproine]-X1) : 94.5
